FYI, the data here is from the MegaScale stability set (Tsuboyama et al. 2023).

B1: 2K2A (parent)
chain: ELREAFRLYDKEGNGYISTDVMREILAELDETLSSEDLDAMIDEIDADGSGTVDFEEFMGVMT

# Variants of: B1
# RUN DESCRIPTION: folding stability dG (cDNA display proteolysis); higher = more stable
# CONDITION NOTES: PBS, room temperature
Class definitions on folding stability dG: lo = under 1 kcal/mol, med = from 1 kcal/mol up to 2 kcal/mol, hi = 2 kcal/mol and over

1) ELREAFRLYDKEGNGYISTDVMREILAELDETLSSEDLDAMIDEIDADGSGTVSFEEFMGVMT [D54S]
hi
2) ELREAFRLYDKEGNGAISTDVMREILAELDETLSSEDLDAMIDEIDADGSGTVDFEEFMGVMT [Y16A]
lo
3) ELREAFRLYDKEGNGYISTDVMREILAELDETLSSEDLDAMIDEIDADGSGTCDFEEFMGVMT [V53C]
lo
4) ELREAFRLYDKEGNGYISTDVMREILAELDETLSIEDLDAMIDEIDADGSGTVDFEEFMGVMT [S35I]
med
5) ELREAFTLYDKEGNGYISTDVMREILAELDETLSSEDLDAMIDEIDADGSGTVDFEEFMGVMT [R7T]
med
6) ELREAFRLYDKEGFGYISTDVMREILAELDETLSSEDLDAMIDEIDADGSGTVDFEEFMGVMT [N14F]
med
7) ELREAFRLYDKEGNGYISTDVMREILAELDETLSLEDLDAMIDEIDADGSGTVDFEEFMGVMT [S35L]
med
8) RLREAFRLYDKEGNGYISTDVMREILAELDETLSSEDLDAMIDEIDADGSGTVDFEEFMGVMT [E1R]
hi
9) ELREAFRLYDKEGNGYISTDVMREILAELDETLSSEDLDAMIDEIDKDGSGTVDFEEFMGVMT [A47K]
hi
10) ELREAFRLYDKEGNGYIKTDVMREILAELDETLSSEDLDAMIDEIDADGSGTVDFEEFMGVMT [S18K]
med
11) ELREAFRLYDKEGNGYISTDVMREIVAELDETLSSEDLDAMIDEIDADGSGTVDFEEFMGVMT [L26V]
lo
12) ELREAFRLYDKEGNGYISTDVMREILAELDETLSSEDLDAMIDEIDADGSGTVDFEEFMGVMY [T63Y]
med
13) ELREAFRLYDKEGNGYISTDVMREILGELDETLSSEDLDAMIDEIDADGSGTVDFEEFMGVMT [A27G]
med
14) ELREAFRLYDKEGNGYISTDVMREILASLDETLSSEDLDAMIDEIDADGSGTVDFEEFMGVMT [E28S]
hi
15) ELREAFRLYDKEGNGYISTDVMREILAELDEALSSEDLDAMIDEIDADGSGTVDFEEFMGVMT [T32A]
med
16) ELREAFRLYDKEGNGYISTDVMREILAELDETLSSEDLDAMINEIDADGSGTVDFEEFMGVMT [D43N]
hi
17) EVREAFRLYDKEGNGYISTDVMREILAELDETLSSEDLDAMIDEIDADGSGTVDFEEFMGVMT [L2V]
med
18) ELREAFRLYDKEGNGYISTDVMREILAELDETLSSEDLDAMIDEIDADHSGTVDFEEFMGVMT [G49H]
med
19) ELREAFRLYDKENNGYISTDVMREILAELDETLSSEDLDAMIDEIDADGSGTVDFEEFMGVMT [G13N]
med
20) ELREAFRLYDKEGNVYISTDVMREILAELDETLSSEDLDAMIDEIDADGSGTVDFEEFMGVMT [G15V]
lo
21) ELREAFRLYDKEGNGYRSTDVMREILAELDETLSSEDLDAMIDEIDADGSGTVDFEEFMGVMT [I17R]
lo
